assayed-system: TRKB kinase (Homo sapiens, UniProt Q16620)
Sequence (Q16620 32-822): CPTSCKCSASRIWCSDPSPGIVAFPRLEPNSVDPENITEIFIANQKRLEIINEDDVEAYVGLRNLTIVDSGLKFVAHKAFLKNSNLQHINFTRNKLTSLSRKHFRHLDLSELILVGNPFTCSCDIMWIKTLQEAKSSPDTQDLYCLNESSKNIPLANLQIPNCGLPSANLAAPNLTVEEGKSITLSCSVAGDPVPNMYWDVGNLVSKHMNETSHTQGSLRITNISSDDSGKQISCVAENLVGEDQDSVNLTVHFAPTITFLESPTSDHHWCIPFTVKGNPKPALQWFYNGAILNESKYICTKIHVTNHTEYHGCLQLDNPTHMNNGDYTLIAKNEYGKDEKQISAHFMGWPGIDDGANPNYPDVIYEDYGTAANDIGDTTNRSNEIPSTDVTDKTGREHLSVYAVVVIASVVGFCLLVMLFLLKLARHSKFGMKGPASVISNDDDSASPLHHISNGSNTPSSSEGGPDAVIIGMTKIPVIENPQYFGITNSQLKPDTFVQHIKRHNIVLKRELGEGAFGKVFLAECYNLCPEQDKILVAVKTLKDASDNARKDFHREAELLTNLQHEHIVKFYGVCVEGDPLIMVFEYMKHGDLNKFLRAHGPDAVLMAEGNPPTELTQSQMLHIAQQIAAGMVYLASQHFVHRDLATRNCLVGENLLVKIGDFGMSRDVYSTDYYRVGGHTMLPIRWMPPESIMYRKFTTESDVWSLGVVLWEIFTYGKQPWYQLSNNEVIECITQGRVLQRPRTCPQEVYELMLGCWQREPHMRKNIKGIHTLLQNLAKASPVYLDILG
assay-remarks: Biochemical kinase analysis (HTRF), TRKB
details: 23° C., read-out: Kinase IC50 (nM) TRK B
measured-property: IC50 (nM)

Example entries begin here.
>  <compound>
O=C1CCOc2ccc(F)cc2[C@H]2CCCN2c2ccn3ncc(c3n2)N1

>  <measure-unit>
nM

>  <numeric-value>
0.1

$$$$
>  <compound>
C[C@H]1Nc2ccn3ncc(c3n2)NC(=O)NCCCc2ccc(F)cc21

>  <measure-unit>
nM

>  <numeric-value>
225

$$$$
>  <compound>
C[C@H]1CC(=O)Nc2cnn3ccc(nc23)N2CCC[C@@H]2c2cc(F)ccc2O1

>  <measure-unit>
nM

>  <numeric-value>
0.1

$$$$
>  <compound>
C[C@H]1Nc2ccn3ncc(c3n2)NC(=O)NCCOc2ccc(F)cc21

>  <measure-unit>
nM

>  <numeric-value>
5.31

$$$$

1: O=C1CCOc2ccc(F)cc2C2CCCN2c2ccn3ncc(c3n2)N1 (racemic)
2: O=C1CCOc2ccc(F)cc2[C@@H]2CCCN2c2ccn3ncc(c3n2)N1
3: CC1(C)COc2ccc(F)cc2[C@@H]2CCCN2c2ccn3ncc(c3n2)NC1=O
4: C[C@H]1Nc2ccn3ncc(c3n2)NC(=O)C(C)(C)COc2ccc(F)cc21
Problem: Reorder: IC50, max to min. Rank them, then answer with their labels in that order.
Solution: 3, 2, 4, 1

Values from patent US11358973B2
